Values from paper PMC6490184

target: Tet(X) (Bacteroides thetaiotaomicron); test: In vitro inhibition of Tet; format: biochemical; details: apparent IC50, Tet(X)-mediated degradation of tigecycline
pIC50: −log10 of the molar value.
Metric Name: pIC50

> print(dat)
                                   compound  observed.result
1  CN(C)[C@@H]1C(O)=C(C(N)=O)C(=O)[C@@]2(O)C(=O)c3c(cc4c(Cl)ccc(O)c4c3O)C[C@@H]12.Cl [aDem]     5.82 to 6.40
2  Cc1c2c(c(O)c3c(O)ccc(Cl)c13)C(=O)[C@]1(O)C(=O)C(C(N)=O)=C(O)[C@@H](N(C)C)[C@@H]1C2 [aCTc]     5.82 to 6.40

---

molecular target: Tet(X) (Bacteroides thetaiotaomicron, UniProt Q93L51); assay: In vitro inhibition of Tet; format: biochemical; conditions: apparent IC50, Tet(X)-mediated degradation of tetracycline antibiotics (tetracycline, demeclocycline)
pIC50: −log10 of the molar value.
Metric Name: pIC50

> print(dat)
                           substance.smiles  metric.name  observed.result
1  CN(C)[C@@H]1C(O)=C(C(N)=O)C(=O)[C@@]2(O)C(=O)c3c(cc4c(Cl)ccc(O)c4c3O)C[C@@H]12.Cl        pIC50     5.40 to 6.00
